procedure details: Dose toxicity and toxicokinetics study in rats
Assay type: in vivo
assay setup: both sexes, rat, in vivo, po; 0.5 mg/kg, Regimen 2, sexes combined
quantity kind: Cmax (ng/mL)
// return numeric value only (unit: ng/mL, not printed)

## Task For the molecule O=C1CC[C@H](N2Cc3cc(C(=O)N[C@H](c4ncccc4Cl)C(F)(F)F)ccc3C2=O)C(=O)N1 , what Cmax is on record?
## Result 263

====

System: leukemic cells from TP53 WT AML patients
procedure details: PharmaFlow test (Vivia), cytotoxic effect on leukemic cells in AML patient BM samples
Assay type: cell-based, human
assay setup: Homo sapiens
quantity kind: IC50

## Task For the molecule O=C1CC[C@H](N2Cc3cc(C(=O)N[C@H](c4ncccc4Cl)C(F)(F)F)ccc3C2=O)C(=O)N1 , what IC50 is on record?
## Result 0.022 to 0.412 µM

Cited source for all entries: patent US20220387405A1
